# test_system: T1, human IL-18BP (Homo sapiens, UniProt O95998)
# T1 construct: His
# T1 sequence (O95998 31-194): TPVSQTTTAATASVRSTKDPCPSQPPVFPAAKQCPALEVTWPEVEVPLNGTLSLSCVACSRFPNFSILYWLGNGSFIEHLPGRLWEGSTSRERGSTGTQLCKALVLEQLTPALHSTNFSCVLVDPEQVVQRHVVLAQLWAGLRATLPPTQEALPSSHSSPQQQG
# protocol: IL-18BP binding alphaLISA assay (Example 4, used in Example 22B)
# run_parameters: IL-18BP AlphaLISA
measured_attribute: Kd

[[record]]
molecule = "46 (protein) YFGKLKSKLSVIRNLNDQVLFIDQGNRPLFEDMTDSDCRDNAPRTIFIISGYADAQPRGMAVTISVKCEKISTLSCENKIISFKEMNPPDNIKDTKSDIIFFQRSVPGHDNKMQFESSSYEGYFLACEKERDLFKLILKKEDELGDRSIMFTVQNED"
value_observed = "> 1000 nM"

[[record]]
molecule = "C155: IL-18 polypeptide: V11I, C38A, D40A, K53A, C76A, C127A (protein) YFGKLESKLSIIRNLNDQVLFIDQGNRPLFEDMTDSDARANAPRTIFIISMYADSQPRGMAVTISVKCEKISTLSAENKIISFKEMNPPDNIKDTKSDIIFFQRSVPGHDNKMQFESSSYEGYFLAAEKERDLFKLILKKEDELGDRSIMFTVQNED"
value_observed = "0.74 nM"

[[record]]
molecule = "SEQ ID NO: 68: IL-18 polypeptide: V11I, C38A, M51G, K53A, C76A, C127A (protein) YFGKLESKLSIIRNLNDQVLFIDQGNRPLFEDMTDSDARDNAPRTIFIISGYADSQPRGMAVTISVKCEKISTLSAENKIISFKEMNPPDNIKDTKSDIIFFQRSVPGHDNKMQFESSSYEGYFLAAEKERDLFKLILKKEDELGDRSIMFTVQNED"
value_observed = "373 nM"

[[record]]
molecule = "C163: IL-18 polypeptide: V11I, C38A, C76A, Q103K, C127A (protein) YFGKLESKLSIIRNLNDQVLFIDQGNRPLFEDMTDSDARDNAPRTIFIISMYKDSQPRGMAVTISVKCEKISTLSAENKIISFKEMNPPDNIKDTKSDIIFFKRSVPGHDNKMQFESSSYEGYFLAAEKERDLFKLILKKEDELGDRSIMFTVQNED"
value_observed = "0.05 nM"

[[record]]
molecule = "C150: IL-18 polypeptide: V11I, T34A, C38A, K53A, C76A, C127A (protein) YFGKLESKLSIIRNLNDQVLFIDQGNRPLFEDMADSDARDNAPRTIFIISMYADSQPRGMAVTISVKCEKISTLSAENKIISFKEMNPPDNIKDTKSDIIFFQRSVPGHDNKMQFESSSYEGYFLAAEKERDLFKLILKKEDELGDRSIMFTVQNED"
value_observed = "1.24 nM"

[[record]]
molecule = "50 (protein) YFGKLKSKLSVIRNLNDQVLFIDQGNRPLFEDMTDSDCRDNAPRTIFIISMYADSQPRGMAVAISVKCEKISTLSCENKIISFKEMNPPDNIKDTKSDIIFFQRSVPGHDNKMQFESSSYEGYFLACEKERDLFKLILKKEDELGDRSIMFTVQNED"
value_observed = "340 nM"

[[record]]
molecule = "C144: IL-18 polypeptide: V11I, C38A, K53A, T63A, C76A, C127A (protein) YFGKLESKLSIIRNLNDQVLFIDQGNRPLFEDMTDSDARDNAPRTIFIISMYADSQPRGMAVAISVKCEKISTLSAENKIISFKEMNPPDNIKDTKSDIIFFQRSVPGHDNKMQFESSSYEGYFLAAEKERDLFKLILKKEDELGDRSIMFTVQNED"
value_observed = "0.66 nM"

[[record]]
molecule = "C162: IL-18 polypeptide: K8E, V11I, C38A, C76A, Q103R, C127A (protein) YFGKLESELSIIRNLNDQVLFIDQGNRPLFEDMTDSDARDNAPRTIFIISMYKDSQPRGMAVTISVKCEKISTLSAENKIISFKEMNPPDNIKDTKSDIIFFRRSVPGHDNKMQFESSSYEGYFLAAEKERDLFKLILKKEDELGDRSIMFTVQNED"
value_observed = "0.85 nM"

[[record]]
molecule = "C174: IL-18 polypeptide: K8L, E6K, V11I, C38A, K53A, T63A, C76A, C127A (protein) YFGKLKSLLSIIRNLNDQVLFIDQGNRPLFEDMTDSDARDNAPRTIFIISMYADSQPRGMAVAISVKCEKISTLSAENKIISFKEMNPPDNIKDTKSDIIFFQRSVPGHDNKMQFESSSYEGYFLAAEKERDLFKLILKKEDELGDRSIMFTVQNED"
value_observed = "0.14 nM"

[[record]]
molecule = "C179: IL-18 polypeptide: E6K, K8E, V11I, C38A, K53A, T63A, C76A, Q103R, C127A (protein) YFGKLKSELSIIRNLNDQVLFIDQGNRPLFEDMTDSDARDNAPRTIFIISMYADSQPRGMAVAISVKCEKISTLSAENKIISFKEMNPPDNIKDTKSDIIFFRRSVPGHDNKMQFESSSYEGYFLAAEKERDLFKLILKKEDELGDRSIMFTVQNED"
value_observed = "> 2800 nM"

[[record]]
molecule = "34 (protein) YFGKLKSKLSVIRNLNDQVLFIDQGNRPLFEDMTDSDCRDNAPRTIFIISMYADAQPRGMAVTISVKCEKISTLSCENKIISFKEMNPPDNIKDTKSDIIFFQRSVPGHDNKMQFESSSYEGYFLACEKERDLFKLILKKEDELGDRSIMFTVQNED"
value_observed = "> 1500 nM"

